Origin of values: patent US9120749B2

Items are presented alongside their recorded IC50.
Test system: HT-1197 cells
Assay: Cell-based assay: anti-proliferative activity, Cell Counting Kit-8, 72 hours (HT-1197, negative control without MELK expression)
Details: Homo sapiens, HT1197, 72 h, HT1197 cells (negative control, no MELK expression), 72 hours

COMPOUND: CCN(C)C[C@H]1CC[C@H](Nc2c(C(C)=O)cnc3ccc(-c4cc(Cl)c(O)c(Cl)c4)cc23)CC1
IC50, µM: 11

COMPOUND: O=C(c1cnc2ccc(-c3cc(F)c(O)c(Cl)c3)cc2c1NC1CCC(N2CC[C@@H](F)C2)CC1)C1CC1 (stereo partly drawn)
IC50, µM: 0.76

COMPOUND: CN(CCO)C[C@H]1CC[C@H](Nc2c(C(=O)C3CC3)cnc3ccc(-c4cc(Cl)c(O)c(Cl)c4)cc23)CC1
IC50, µM: 0.75

* * *

Test system: T47D cells
Assay: Cell-based assay: anti-proliferative activity, Cell Counting Kit-8, 72 hours (T47D)
Conditions: Homo sapiens, T47D, 72 h
Counter-ions that a name gives are not always drawn.
Field 'label' (enum: yes (1) / no (0)). Set to yes (1) when IC50 is strictly under 0.5 µM; else no (0).

MOLECULE: CC(=O)c1cnc2ccc(-c3cc(F)c(O)c(Cl)c3)cc2c1Nc1ccc(N2CCCC(N)C2)nc1 (centres unmarked)
CLASS LABEL: yes (1)

MOLECULE: COC1CCN(C[C@H]2CC[C@H](Nc3c(C(=O)C4CC4)cnc4ccc(-c5cc(Cl)c(O)c(Cl)c5)cc34)CC2)C1 (some centres unmarked)
CLASS LABEL: yes (1)

MOLECULE: CN(C)C[C@H]1CC[C@H](Nc2c(S(C)(=O)=O)cnc3ccc(-c4cc(F)c(O)c(Cl)c4)cc23)CC1
CLASS LABEL: yes (1)

MOLECULE: CC(=O)c1cnc2ccc(-c3ccc4nc[nH]c4c3)cc2c1Nc1cnn(C2CCN(C)CC2)c1 [Example 895, hydrochloride]
CLASS LABEL: no (0)

MOLECULE: CN1CCN(c2c(C(=O)C3CC3)cnc3ccc(-c4cc(F)c(O)c(Cl)c4)cc23)CC1
CLASS LABEL: no (0)

MOLECULE: COc1cc(-c2ccc3ncc(C(=O)C4CC4)c(N[C@H]4CC[C@H](CN(C)CCO)CC4)c3c2)cc(Cl)c1O
CLASS LABEL: yes (1)

MOLECULE: CS(=O)(=O)c1cnc2ccc(-c3cc(F)c(O)c(Cl)c3)cc2c1Nc1cccc(CCN2CCCC2)c1 [Example 879, hydrochloride]
CLASS LABEL: no (0)

* * *

Items are presented alongside their recorded IC50.
Biological target: MELK (Homo sapiens, UniProt Q14680)
Sequence (Q14680 whole entry, looked up): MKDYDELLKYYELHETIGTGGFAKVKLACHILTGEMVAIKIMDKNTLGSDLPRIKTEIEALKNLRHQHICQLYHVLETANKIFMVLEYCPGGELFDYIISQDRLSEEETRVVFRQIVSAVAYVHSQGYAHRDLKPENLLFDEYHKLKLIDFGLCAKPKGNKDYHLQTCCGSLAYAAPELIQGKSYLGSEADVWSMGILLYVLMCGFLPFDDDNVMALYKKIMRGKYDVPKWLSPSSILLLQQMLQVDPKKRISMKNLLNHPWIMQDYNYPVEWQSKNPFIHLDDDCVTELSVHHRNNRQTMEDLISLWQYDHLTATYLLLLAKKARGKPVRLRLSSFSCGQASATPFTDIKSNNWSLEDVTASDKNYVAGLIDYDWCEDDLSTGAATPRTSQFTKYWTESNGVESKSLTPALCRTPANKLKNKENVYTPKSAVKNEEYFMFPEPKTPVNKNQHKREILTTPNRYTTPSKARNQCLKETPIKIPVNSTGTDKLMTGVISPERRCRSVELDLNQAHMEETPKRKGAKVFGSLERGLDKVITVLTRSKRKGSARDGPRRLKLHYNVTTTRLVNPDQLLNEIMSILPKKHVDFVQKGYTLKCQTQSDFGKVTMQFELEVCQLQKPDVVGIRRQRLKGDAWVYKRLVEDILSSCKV
Assay: Kinase assay: MELK activity, phosphorylation of FITC-labeled histone H3 peptide measured by IMAP fluorescence polarization
Type: biochemical
Details: read-out: IC50 (μM) (kinase assay)
Structures can show the parent of a compound that is named as a salt.

COMPOUND: CC(=O)c1cnc2ccc(-c3cc(F)c(O)c(Cl)c3)cc2c1Nc1ccc(N2CCN(C)CC2)nc1 [Example 488]
TARGET ENTITY: MELK (Homo sapiens, UniProt Q14680)
ENDPOINT UNIT: µM
IC50: 0.0041
--
COMPOUND: CC(=O)c1cnc2ccc(-c3cc(F)c(O)c(Cl)c3)cc2c1N[C@H]1CC[C@H](CN2CCNCC2)CC1 [Example 783, dihydrochloride]
TARGET ENTITY: MELK (Homo sapiens, UniProt Q14680)
ENDPOINT UNIT: µM
IC50: 0.0088
--
COMPOUND: CN(C)Cc1ccc(Nc2c(C(=O)C3CC3)cnc3ccc(-c4cc(Cl)c(O)c(Cl)c4)cc23)cn1 [Example 657]
TARGET ENTITY: MELK (Homo sapiens, UniProt Q14680)
ENDPOINT UNIT: µM
IC50: 0.0089

* * *

Target: MELK (Homo sapiens)
Assay: Kinase assay: MELK activity, phosphorylation of FITC-labeled histone H3 peptide measured by IMAP fluorescence polarization
Format: biochemical
Details: MELK kinase assay, IMAP fluorescence polarization, 50 micro-M ATP; read-out: IC50 (μM) (kinase assay)
Structures can show the parent of a compound that is named as a salt.
Items are presented alongside their recorded log10 of IC50.
EXPERIMENTAL ENDPOINT: log10 of IC50 (log10 of the value in µM)

COMPOUND: CC(=O)c1cnc2ccc(-c3cc(F)c(O)c(Cl)c3)cc2c1Nc1cnc(C)c(CCN2CCCC2)c1 [Example 867]
TARGET ENTITY: MELK (Homo sapiens)
log10 of IC50: -1.85
//
COMPOUND: CS(=O)(=O)c1cnc2ccc(-c3cc(F)c(O)c(Cl)c3)cc2c1Nc1ccc(N2CCCC(N)C2)nc1 (centres unmarked) [Example 909]
TARGET ENTITY: MELK (Homo sapiens)
log10 of IC50: -2.80
//
COMPOUND: CCC(=O)c1cnc2ccc(-c3cc(F)c(O)c(Cl)c3)cc2c1Nc1ccc(N2CCCC(N)C2)nc1 (centres unmarked) [Example 825]
TARGET ENTITY: MELK (Homo sapiens)
log10 of IC50: -2.74
//
COMPOUND: CC(=O)c1cnc2cc(F)c(-c3cc(Cl)c(O)c(Cl)c3)cc2c1N[C@H]1CC[C@H](CN2CCCC2)CC1 [Example 923, hydrochloride]
TARGET ENTITY: MELK (Homo sapiens)
log10 of IC50: -2.15
//
COMPOUND: CC(=O)c1cnc2ccc(-c3cc(F)c(O)c(Cl)c3)cc2c1Nc1cnn(C2CCN(C)C2)c1 (centres unmarked) [Example 813, dihydrochloride]
TARGET ENTITY: MELK (Homo sapiens)
log10 of IC50: -2.68
//
COMPOUND: CC(=O)c1cnc2ccc(-c3ccc4[nH]ncc4c3)cc2c1N[C@H]1CC[C@H](CN(C)C)CC1 [Example 910, hydrochloride]
TARGET ENTITY: MELK (Homo sapiens)
log10 of IC50: -1.00
//
COMPOUND: O=C(c1cnc2ccc(-c3cc(F)c(O)c(Cl)c3)cc2c1Nc1cncc(CCN2CCCC2)c1)C1CC1 [Example 882]
TARGET ENTITY: MELK (Homo sapiens)
log10 of IC50: -1.72
//
COMPOUND: CC(=O)c1c(C)nc2ccc(-c3cc(Cl)c(O)c(Cl)c3)cc2c1Nc1ccc(N2CCN(C)CC2)nc1 [Example 838, hydrochloride]
TARGET ENTITY: MELK (Homo sapiens)
log10 of IC50: -1.01
//
COMPOUND: CC(=O)c1cnc2ccc(-c3cc(F)c(O)c(Cl)c3)cc2c1N[C@H]1CC[C@H](CN2CCC[C@H]2CO)CC1 [Example 844]
TARGET ENTITY: MELK (Homo sapiens)
log10 of IC50: -2.34
//
COMPOUND: CN1CCC(n2cc(Nc3c(S(C)(=O)=O)cnc4ccc(-c5cc(Cl)c(O)c(Cl)c5)cc34)cn2)CC1 [Example 899, hydrochloride]
TARGET ENTITY: MELK (Homo sapiens)
log10 of IC50: -2.77
//
COMPOUND: CC(=O)c1cnc2ccc(-c3cc(F)c(O)c(Cl)c3)cc2c1N[C@H]1CCC[C@H](CCN(C)C)C1 [Example 862, hydrochloride]
TARGET ENTITY: MELK (Homo sapiens)
log10 of IC50: -2.17
